assayed.system: T1, MDMX (In-house, 40 kD) (UniProt O15151 1-134, limits assumed)
T1 construct: Construct used in the FP assays is described only as in-house, 40 kD; also called MDM4
T1 sequence (looked up): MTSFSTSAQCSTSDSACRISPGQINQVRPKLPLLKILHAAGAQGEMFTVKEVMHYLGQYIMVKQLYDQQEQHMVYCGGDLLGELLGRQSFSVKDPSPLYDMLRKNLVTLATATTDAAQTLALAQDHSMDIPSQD
assay.overview: competitive fluorescence polarization vs FAM-labeled linear peptide; grade of Ki (MDMX); scale in paragraph 664: ++++ = <=10 nM
pKi: −log10 of the molar value.
readout.type: pKi

{"binder": "LTFCAYWAQLCAAXA (N-terminal acetyl (Ac); position 4 = %cs7 (alpha-methyl-D-cysteine) connected by an i to i+7 seven-methylene bis-thioether crosslinker to position 11 = %c7 (alpha-methyl-L-cysteine); position 14 = Nle (norleucine); C-terminal amide (NH2), Thioether-crosslinked macrocycle of Formula II; also called Ac-LTF%cs7AYWAQL%c7AANleA-NH2) [SP-916]", "pKi": "≥ 8.00"}

Continue with the next binder.
The binder identified as LTFXAYWAQLXAAXA (N-terminal acetyl (Ac); position 4 = $4rn6 (alpha-Me R-azide 1,4 triazole, 6 carbon) crosslinked to position 11 = $4a5 (alpha-Me alkyne 1,4 triazole, 5 carbon); position 14 = Nle (norleucine); C-terminal amide (NH2), Triazole-crosslinked macrocycle of Formula I; also called Ac-LTF$4rn6AYWAQL$4a5AANleA-NH2) [SP-449] registered its pKi at ≥ 8.00
